MEASUREMENT TARGET: Aromatase (Homo sapiens, UniProt P11511)
List of inhibition at 0.75 µM values.
Use % as the unit, but write only the number.

Query: Please tell me the measured inhibition at 0.75 µM for CC(=O)SC1=C2CCC3C4CCC(=O)C4(C)CCC3C2(C)CCC1=O (stereo not given) ; system: Aromatase (Homo sapiens, UniProt P11511).
Result: 42

###

Below, each of the compounds is paired with its reported inhibition at 1.5 µM value.
MEASUREMENT TARGET: Aromatase (Homo sapiens)
Sequence (P11511 whole entry): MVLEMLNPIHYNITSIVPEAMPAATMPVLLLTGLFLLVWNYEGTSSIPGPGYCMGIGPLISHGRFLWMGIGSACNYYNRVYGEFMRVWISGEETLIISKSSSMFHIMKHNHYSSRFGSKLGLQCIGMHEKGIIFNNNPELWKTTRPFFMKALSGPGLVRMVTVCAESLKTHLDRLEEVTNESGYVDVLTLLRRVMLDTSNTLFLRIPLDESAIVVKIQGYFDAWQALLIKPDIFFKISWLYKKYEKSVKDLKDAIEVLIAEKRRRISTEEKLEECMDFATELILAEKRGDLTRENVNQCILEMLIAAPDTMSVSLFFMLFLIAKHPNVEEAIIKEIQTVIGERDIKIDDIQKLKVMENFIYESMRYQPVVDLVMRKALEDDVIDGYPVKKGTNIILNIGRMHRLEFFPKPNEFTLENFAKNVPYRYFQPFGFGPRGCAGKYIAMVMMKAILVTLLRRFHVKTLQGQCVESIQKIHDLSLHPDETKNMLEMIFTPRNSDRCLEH
Answer with a number only, understood to be in %.

Worked cases, inhibition at 1.5 µM given:
CCCCCSC1=C2CCC3C4CCC(=O)C4(C)CCC3C2(C)CCC1=O (stereo not given) ... 8
CCCSC1=C2CCC3C4CCC(=O)C4(C)CCC3C2(C)CCC1=O (stereo not given) ... 49
COc1ccc(SC2=C3CCC4C5CCC(=O)C5(C)CCC4C3(C)CCC2=O)cc1 (stereo not given) ... 2
CC(=O)OC1=C2CCC3C4CCC(=O)C4(C)CCC3C2(C)CCC1=O (stereo not given) ... 78

# next compound below
Query: Report inhibition at 1.5 µM under test system Aromatase (Homo sapiens) for CCSC1=C2CCC3C4CCC(=O)C4(C)CCC3C2(C)CCC1=O (stereo not given) .
Result: 52

###

MEASUREMENT TARGET: UniProt:P11511
MEASUREMENT KIND: inhibition at 0.75 µM (%)
# value in %; strip the unit string

Study these solved cases before continuing.
CC(=O)OC1=C2CCC3C4CCC(=O)C4(C)CCC3C2(C)CCC1=O (centres undefined) ... 70
CCCCSC1=C2CCC3C4CCC(=O)C4(C)CCC3C2(C)CCC1=O (centres undefined) ... 12
CC12CCC3C(CCC4=C(S)C(=O)CCC43C)C1CCC2=O (centres undefined) ... 52

# ---- query molecule ----
Query: Retrieve inhibition at 0.75 µM on UniProt:P11511; query Cc1ccc(SC2=C3CCC4C5CCC(=O)C5(C)CCC4C3(C)CCC2=O)cc1 (centres undefined)
Result: 27
